Experiment: logP determination by HPLC (EEC Directive 79/831 Annex V. A8)
Conditions: HPLC, gradient method, acetonitrile/0.1% aqueous phosphoric acid
I'd appreciate it if you could supply log.P values for the items below.
Field format: numeric only.

Would you kindly share the measured log.P for Fc1cc(F)c(-c2c(Cl)nc3nc(Br)nn3c2NN2CCOCC2)c(F)c1 ?
2.77

Would you kindly share the measured log.P for CCC(C)Nc1c(-c2c(F)cc(F)cc2F)c(Cl)nc2nc(Br)nn12 (stereo not drawn) ?
3.76

Would you kindly share the measured log.P for CC1=CCCN(c2c(-c3c(F)cc(F)cc3F)c(Cl)nc3nc(Br)nn23)C1 ?
4.19

Would you kindly share the measured log.P for CNc1c(-c2ccccc2Cl)c(Cl)nc2nc(Cl)nn12 ?
2.7

Would you kindly share the measured log.P for OCCNc1c(-c2ccccc2Cl)c(Cl)nc2nc(Cl)nn12 ?
2.18

Would you kindly share the measured log.P for Clc1nc2nc(Cl)c(-c3ccccc3Cl)c(NC3CC3)n2n1 ?
3.18

Would you kindly share the measured log.P for Fc1cc(F)c(-c2c(Cl)nc3nc(Cl)nn3c2NN2CCOCC2)c(F)c1 ?
2.74

Would you kindly share the measured log.P for CN(Cc1ccco1)c1c(-c2ccc(F)cc2F)c(Cl)nc2nc(Cl)nn12 ?
3.69

Would you kindly share the measured log.P for CCC(C)Nc1c(-c2c(F)cc(F)cc2F)c(Cl)nc2nc(Cl)nn12 (stereo not drawn) ?
3.7

----------
Test system: Venturia inaequalis
Assay: Venturia test (apple)/protective
Type: in vivo
Details: Venturia inaequalis, 240 h, protective, application rate 100 g/ha, evaluation 10 days after inoculation, read-out: Efficacy in %
Description: Venturia Test (Apple)/Protective [table] To produce a suitable preparation of active compound, 1 part by weight of active compound is mixed with the stated amounts of solvent and emulsifier, and the concentrate is diluted with water to the desired concentration. To test for protective activity, young plants are sprayed with the preparation of active compound at the stated application rate. […]
I'd appreciate it if you could supply pest or weed control at 100 g/ha values for the items below.
Number in %, nothing else.

Would you kindly share the measured pest or weed control at 100 g/ha for CC(C)CNc1c(-c2ccc(F)cc2F)c(Cl)nc2nc(Cl)nn12 [drawing 58] ?
85

Would you kindly share the measured pest or weed control at 100 g/ha for CCC(C)CNc1c(-c2c(F)cc(F)cc2F)c(Cl)nc2nc(Br)nn12 (centres unmarked) [drawing 54] ?
80

Would you kindly share the measured pest or weed control at 100 g/ha for CC(C)CNc1c(-c2c(F)cccc2Cl)c(Cl)nc2nc(Cl)nn12 [drawing 63] ?
91

Would you kindly share the measured pest or weed control at 100 g/ha for C[C@H](Nc1c(-c2c(F)cc(F)cc2F)c(Cl)nc2nc(Br)nn12)C(F)(F)F [drawing 56] ?
99

Would you kindly share the measured pest or weed control at 100 g/ha for Fc1ccc(-c2c(Cl)nc3nc(Cl)nn3c2N[C@@H](Cl)C(F)(F)F)c(F)c1 [drawing 60] ?
100

Would you kindly share the measured pest or weed control at 100 g/ha for C[C@H](Nc1c(-c2c(F)cccc2Cl)c(Cl)nc2nc(Cl)nn12)C(F)(F)F [drawing 59] ?
100

Would you kindly share the measured pest or weed control at 100 g/ha for COc1nc2nc(Cl)c(-c3c(F)cc(F)cc3OC)c(NC(C)C(F)(F)F)n2n1 (centres unmarked) [drawing 67] ?
99

Would you kindly share the measured pest or weed control at 100 g/ha for CCC(C)CNc1c(-c2c(F)cc(F)cc2F)c(Cl)nc2nc(Cl)nn12 (centres unmarked) [drawing 53] ?
83
